Hey, just so you know, these numbers are from patent EP0527889B1.

# MIC values values compiled below
# System: Staphylococcus aureus NCTC 10649
# Assay: In vitro antibacterial activity, MIC by agar dilution
# Format: cell-based
# Test Parameters: BHI agar, 35-37°C, 20-24 hours, unit assumed
Counter-ions that a name gives are not always drawn.
Measure Name: MIC values (µg/mL)

{"columns": ["Compound", "System Tested", "Readout Unit", "Reading"],
 "data": [
  ["CN1CCN(c2nc3c(C4CC4)cc(C(=O)O)c(=O)n3cc2F)CC1", "Staphylococcus aureus NCTC 10649", "µg/mL", 0.78],
  ["C[C@H](N)C(=O)NC1CCN(c2nc3c(-c4ccc(F)cc4F)cc(C(=O)O)c(=O)n3cc2F)C1 (stereo partly shown) [Example 167, hydrochloride]", "Staphylococcus aureus NCTC 10649", "µg/mL", 0.78],
  ["CC(C)(C)OC(=O)NC1CCN(c2nc3c(-c4ccc(F)cc4F)cc(C(=O)O)c(=O)n3cc2F)C1 (stereo not shown)", "Staphylococcus aureus NCTC 10649", "µg/mL", 0.2],
  ["CCC[C@H](N)C(=O)NC1CCN(c2nc3c(-c4ccc(F)cc4F)cc(C(=O)O)c(=O)n3cc2F)C1 (stereo partly shown) [Example 166, hydrochloride salt]", "Staphylococcus aureus NCTC 10649", "µg/mL", 0.39]
]}

----------
# log10(MIC values) values compiled below
# Tested on: Staphylococcus aureus NCTC 10649
# Assay: In vitro antibacterial activity, MIC by agar dilution
# Type: cell-based
# Test Parameters: BHI agar, 35-37°C, 20-24 hours, unit assumed
Where a name gives a salt, the structure may show the parent alone.
Measure Name: log10(MIC values) (log10 of the value in µg/mL)

{"columns": ["Compound", "log10(MIC values)"],
 "data": [
  ["NC1CCN(c2nc3c(-c4ccc(F)cc4F)cc(C(=O)O)c(=O)n3cc2F)C1 (stereo not drawn)", -1.30],
  ["CN1CCN(c2nc3c(-c4ccc(F)cc4F)cc(C(=O)O)c(=O)n3cc2F)CC1", -0.70],
  ["NC1CCN(c2nc3c(-c4c(F)c(F)c(F)c(F)c4F)cc(C(=O)O)c(=O)n3cc2F)C1 (stereo not drawn) [Example 172, hydrochloride salt]", 1.70],
  ["CN1CCN(c2nc3c(-c4ccc(F)cc4)cc(C(=O)O)c(=O)n3cc2F)CC1 [Example 2]", -0.41],
  ["O=C(O)c1cc(C2CC2)c2nc(N3CCNCC3)c(F)cn2c1=O", 0.19],
  ["NC1CCN(c2nc3c(C4CC4)cc(C(=O)O)c(=O)n3cc2F)C1 (stereo not drawn) [Example 157, hydrochloride salt]", -0.70],
  ["O=C(O)c1cc(C2CC2)c2nc(N3CCOCC3)c(F)cn2c1=O", 0.79],
  ["O=C(O)c1cn(C2CC2)c2cc(N3CCNCC3)c(F)cc2c1=O [Cntl, Ciprofloxacin, reference compound]", -0.41],
  ["CCc1cc(C(=O)O)c(=O)n2ccc(N3CCC(N)C3)cc12.Cl (stereo not drawn)", 0.79],
  ["C[C@H]1C[C@H](N)CN1c1nc2c(-c3ccc(F)cc3F)cc(C(=O)O)c(=O)n2cc1F [Example 171, hydrochloride]", -1.00],
  ["CC(=O)N[C@H]1C[C@H](C)N(c2nc3c(-c4ccc(F)cc4F)cc(C(=O)O)c(=O)n3cc2F)C1", -0.70],
  ["CN1CCN(c2nc3c(-c4ccc(F)cc4)cc(C(=O)O)c(=O)n3cc2F)CC1 [Example 1]", -0.41],
  ["C[C@H](N)C(=O)N[C@@H](C)C(=O)NC1CCN(c2nc3c(-c4ccc(F)cc4F)cc(C(=O)O)c(=O)n3cc2F)C1 (stereo partly drawn) [Example 168, hydrochloride]", -0.11],
  ["C[C@H](N)C(=O)N[C@@H](C)C(=O)N[C@H]1C[C@H](C)N(c2nc3c(-c4ccc(F)cc4F)cc(C(=O)O)c(=O)n3cc2F)C1 [Example 173, hydrochloride]", 0.19],
  ["O=C(O)c1cc(-c2ccc(F)cc2F)c2nc(N3CCC(O)C3)c(F)cn2c1=O (stereo not drawn)", -1.30]
]}
